Please provide measured TGI for the entries that follow.
- Test system: RXF 393 renal
- experiment.notes: NCI tumour cell line growth inhibition, 48 h
Give bare numbers, in µM.

Here is how some compounds turned out for TGI.
{"compound": "Cc1c2cc[nH]c(=O)c2c(C)c2c1[nH]c1cc(OCCN3CCN(C)CC3)ccc12", "system": "RXF 393 renal", "attribute.measured": "TGI", "reported.value": 2.72}
{"compound": "O=C(O)[C@H]1[C@@H](C2CCCCC2)O[C@@H](C2CCCCC2)O[C@H]1C(F)(F)F", "system": "RXF 393 renal", "attribute.measured": "TGI", "reported.value": 48.4}

Turning to the following compound.
Prompt line: Identify the reported TGI for the following entry. C=CCC1(O)c2ccccc2C(=O)c2c(O)ccc(O)c21 (stereo unspecified)
Response line: 21.4
